# target_or_test_system: Fuc(a1-3)[Gal(b1-4)]Glc6S
# test_protocol: glycan array binding signal (z-score within array); higher = stronger binding
# condition_summary: glycan notation: IUPAC condensed, linker removed
The sample as a whole holds a higher share of the strongest signals than the screen did.
experimental_endpoint: glycan array binding signal (z-score)
Numbers only.

Study these solved cases before continuing.
1) Flo5 (Saccharomyces cerevisiae), P38894 (protein) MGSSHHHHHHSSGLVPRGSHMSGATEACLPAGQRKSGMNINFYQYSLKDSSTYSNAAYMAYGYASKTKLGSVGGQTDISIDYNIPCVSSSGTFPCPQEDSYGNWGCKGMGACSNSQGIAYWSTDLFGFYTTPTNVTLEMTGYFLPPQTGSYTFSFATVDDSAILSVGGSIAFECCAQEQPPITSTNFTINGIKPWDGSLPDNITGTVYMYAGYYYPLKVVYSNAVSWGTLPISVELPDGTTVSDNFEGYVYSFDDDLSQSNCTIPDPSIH: -0.024
2) Banana lectin (Musa acuminata) (protein) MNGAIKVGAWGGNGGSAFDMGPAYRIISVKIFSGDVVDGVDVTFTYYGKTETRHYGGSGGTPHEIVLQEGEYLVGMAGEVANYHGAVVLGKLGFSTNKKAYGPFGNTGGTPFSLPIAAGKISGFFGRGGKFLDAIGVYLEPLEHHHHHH: -0.211

Prompt line: If you can, please state the reported glycan array binding signal (z-score) value of Sebin2 (Coprinopsis cinerea), A8PE78 (protein) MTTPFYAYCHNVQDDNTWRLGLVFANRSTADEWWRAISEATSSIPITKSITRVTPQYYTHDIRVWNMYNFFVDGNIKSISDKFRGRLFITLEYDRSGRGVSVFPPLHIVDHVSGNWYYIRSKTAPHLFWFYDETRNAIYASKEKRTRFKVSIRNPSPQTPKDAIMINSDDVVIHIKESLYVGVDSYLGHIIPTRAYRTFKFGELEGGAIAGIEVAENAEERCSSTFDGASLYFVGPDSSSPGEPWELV .
Response line: 1.49

All values here come from the supplement of paper PMC8728848.
